# System: human recombinant adrenergic α1D receptor (Homo sapiens, UniProt P25100)
# Construct: expressed in transfected cells; host or cells: HEK-293
# Sequence (P25100 whole entry): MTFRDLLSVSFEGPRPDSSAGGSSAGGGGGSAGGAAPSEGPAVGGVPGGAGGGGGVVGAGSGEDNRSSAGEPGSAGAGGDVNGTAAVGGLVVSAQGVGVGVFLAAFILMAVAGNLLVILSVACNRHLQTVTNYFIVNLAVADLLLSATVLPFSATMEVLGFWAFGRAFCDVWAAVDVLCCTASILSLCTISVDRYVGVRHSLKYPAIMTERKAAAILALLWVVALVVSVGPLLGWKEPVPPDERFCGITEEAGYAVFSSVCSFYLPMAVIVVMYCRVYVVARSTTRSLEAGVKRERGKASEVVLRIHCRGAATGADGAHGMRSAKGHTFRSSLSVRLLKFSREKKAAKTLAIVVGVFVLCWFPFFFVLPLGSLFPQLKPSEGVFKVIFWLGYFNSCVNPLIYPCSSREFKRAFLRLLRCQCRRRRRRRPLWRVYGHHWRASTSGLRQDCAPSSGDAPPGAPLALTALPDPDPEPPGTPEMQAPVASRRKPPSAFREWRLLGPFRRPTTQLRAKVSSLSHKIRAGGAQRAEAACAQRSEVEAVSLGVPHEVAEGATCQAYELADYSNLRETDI
# Experiment: Radioligand binding, adrenergic α1D ([3H]Prazosin)
# Experimental Setup: compound at 0.1 μM; [3H]Prazosin; repeat assays, each datapoint shown; read-out: Percentage inhibition of ligand binding, Adrenergic α1D
Measurement Label: inhibition at 0.1 µM (%)

P = Cc1ccc2c(c1)c1c(n2CC(C)(O)c2cccnc2)CCN(C)C1 (stereo not shown) [compound 5]
Q = CN1CCc2c(c3cc(Cl)ccc3n2CC(C)(O)c2ccncc2)C1 (stereo not shown)
Select one. Lower inhibition at 0.1 µM: P or Q // respond with label for picked entry
P
(P: 4%, Q: 16%)
